Catalogue of compounds with associated pKi
target: Adrenergic receptor alpha-2 (Homo sapiens, UniProt P08913+P18825+P18089); assay: Displacement of [3H]RX821002 from alpha-2 adrenergic receptor in human brain pre-frontal cortex neural membranes after 30 mins by liquid scintillation counting method
Assay metric: pKi

- CCCN1C(N)=NCc2cccnc21: 4.99
- CCCN1C(NCc2ccccc2)=NCc2cccnc21: 5.05
- OCCNC1=NCCc2cc3c(cc2N1)OCO3: 5.5
- CN(C)c1ccc2c(c1)CCN=C(NCc1ccc3c(c1)OCO3)N2: 6.14
- c1ccc(CNC2=NCc3ccccc3N2c2ccccc2)cc1: 4.92
- c1ccc(CNC2=NCc3ccccc3N2Cc2ccc3c(c2)OCO3)cc1: 6.55
- OCCNC1=NCCc2ccccc2N1: 5.81
- CN(C)c1ccc2c(c1)CCN=C(NCCO)N2: 4.99
- CCCN1C(NCc2ccccc2)=NCc2ccccc21: 5.29
- CCCN1C(N)=NCc2ccccc21: 5.11
- c1ccc2c(c1)CCN=C(NCc1ccc3c(c1)OCO3)N2: 6.64
- OCCN1C(NCc2ccccc2)=NCc2cccnc21: 5.07
- c1ccc(CNC2=NCc3cccnc3N2Cc2ccc3c(c2)OCO3)cc1: 5.15
- COC1(C2=NCCN2)COc2ccccc2O1 (stereo unspecified): 8.85
- CN(C)c1ccc2c(c1)CCN=C(NCc1ccco1)N2: 5.36
- NC1=NCc2ccccc2N1c1ccccc1: 5.85
